Tested on: Aspergillus niger
test method notes: Antifungal activity against Aspergillus niger MTCC 8189 after 7 days by tube dilution method
Type: functional
// -logMIC lookup, one value per entry

Recorded -logMIC, per entry:
COc1ccc(/C=N/c2c(C)n(C)n(-c3ccccc3)c2=O)cc1OC    1.45
CCOc1cc(/C=N/c2c(C)n(C)n(-c3ccccc3)c2=O)ccc1O    1.45
COc1cccc(/C=N/c2c(C)n(C)n(-c3ccccc3)c2=O)c1    1.41

Ask | Please give measured -logMIC of the following entry: `COc1cc(/C=N/c2c(C)n(C)n(-c3ccccc3)c2=O)cc(OC)c1OC`
Reply | 1.48

Ask | Please give measured -logMIC of the following entry: `Cc1c(/N=C/c2cccc(O)c2)c(=O)n(-c2ccccc2)n1C`
Reply | 1.39

Ask | Please give measured -logMIC of the following entry: `Cc1c(/N=C/c2ccc(Cl)cc2Cl)c(=O)n(-c2ccccc2)n1C`
Reply | 1.46

Source: ChEMBL document CHEMBL3046140
